Would you kindly list RP-LC retention time for each of these compounds?
# experiment notes: gradient 5% acetonitrile 3 min, to 50% in 2 min, to 85% in 15 min, held 3 min, 100 µL/min
# condition: column: Zorbax Extend-C18 2.1 x 50 mm; eluents: water / acetonitrile, 0.1% formic acid
Remember to put the unit after the number in your answer.

Request: Entry `CC(C)C(=O)NCc1nc(-c2ccccc2Cl)no1` : reported RP-LC retention time = ?
Result: 754 s

Request: Entry `CCOc1ccc(N2C=C(C(=O)N3CCCC3)S(=O)(=O)c3ccc(F)cc32)cc1` : reported RP-LC retention time = ?
Result: 872 s

Request: Entry Cc1ccccc1CC(=O)N1CCCC(COc2cccc(C(=O)NC3CC3)c2)C1 (centres undefined) : reported RP-LC retention time = ?
Result: 861 s

Request: Entry `CN(CC1CCOCC1)S(=O)(=O)c1cccc(C(F)(F)F)c1` : reported RP-LC retention time = ?
Result: 906 s

Request: Entry `COc1ccc(C(=O)N2CCC3(CC2)NCc2ccccc2-n2ccnc23)cc1OC` : reported RP-LC retention time = ?
Result: 594 s

Request: Entry O=C(NC(c1nnc(-c2ccccc2)o1)c1ccccc1F)c1ccco1 (centres undefined) : reported RP-LC retention time = ?
Result: 851 s

Request: Entry CC(=O)Nc1ccc(NC(=O)C2CCCN(S(=O)(=O)c3cc(-c4noc(C)n4)cs3)C2)cc1 (centres undefined) : reported RP-LC retention time = ?
Result: 744 s

Request: Entry `Cc1ccc(C(=O)Nc2nc(-c3ccc4c(c3)N(C)C(=O)CO4)cs2)cc1` : reported RP-LC retention time = ?
Result: 952 s

Request: Entry `Cc1cc(C(=O)Nc2ccc(Br)cc2F)n(-c2ccccc2)n1` : reported RP-LC retention time = ?
Result: 1010 s

Request: Entry `O=S(=O)(Nc1ccc(Cn2cncn2)cc1)c1cc(F)cc(F)c1` : reported RP-LC retention time = ?
Result: 708 s

Request: Entry `O=C(NCCc1c[nH]c2ccccc12)C(=O)Nc1ccc2c(c1)OCCO2` : reported RP-LC retention time = ?
Result: 825 s

Request: Entry CCCCNC(=O)c1cc2n(n1)CC(C)(C(=O)NCc1ccc(F)cc1)N(C)C2=O (centres undefined) : reported RP-LC retention time = ?
Result: 725 s

Request: Entry Cc1cc(Cl)ccc1S(=O)(=O)N1CCN(C2CCN(Cc3ccccn3)C2=O)CC1 (centres undefined) : reported RP-LC retention time = ?
Result: 608 s

Request: Entry `CC(C)(C)CC(=O)NCCn1c(=O)n(Cc2ccc(F)cc2)c2cccnc21` : reported RP-LC retention time = ?
Result: 808 s

Request: Entry `CCCn1c(=O)c(N2CCC(NC(=O)Nc3cccc(C)c3)CC2)nc2ccccc21` : reported RP-LC retention time = ?
Result: 1030 s

Request: Entry `CC(C)CC(=O)Nc1ccc(-n2cnc(C(=O)N3CCN(C4CCCCC4)CC3)c2)nc1` : reported RP-LC retention time = ?
Result: 620 s

Request: Entry `CC1(C)CC(=O)c2cn(-c3ccc(Cl)cc3)c(=O)c(C(=O)N3CCN(c4ccccn4)CC3)c2C1` : reported RP-LC retention time = ?
Result: 650 s

Request: Entry `COc1ccc(Nc2cc(C(=O)N3CCCCC3)nc3c(OC)cccc23)cc1OC` : reported RP-LC retention time = ?
Result: 570 s

Request: Entry `Cc1nc(CNC(=O)C2CCN(C(=O)Nc3ccccc3Br)CC2)cs1` : reported RP-LC retention time = ?
Result: 655 s
